src = ChEMBL document CHEMBL5356944

- Test system: Leishmania mexicana
- experiment: Antileishmanial activity against Leishmania mexicana amastigotes assessed as effective dose
- run conditions: read-out: ED50 (the source's name)
Could you please mark condition met for values of EC50 below 10 µM and condition not met for values at or above it?

Problem: Is EC50 of CC1(C)CC[C@]2(C(=O)OCc3ccccc3)CC[C@]3(C)C(=CC[C@@H]4[C@@]5(C)CC[C@@H]6O[C@H]([C@H](OCc7ccccc7)[C@@H](OCc7ccccc7)[C@H](COCc7ccccc7)OCc7ccccc7)OC[C@@]6(C)[C@@H]5CC[C@]43C)[C@@H]2C1 strictly below 10 µM?
Result: condition met

Problem: Is EC50 of CC1(C)CC[C@]2(NC(=O)N3CCCC3)CC[C@]3(C)C(=CC[C@@H]4[C@@]5(C)CC[C@@H]6OC(C)(C)OC[C@@]6(C)[C@@H]5CC[C@]43C)[C@@H]2C1 strictly below 10 µM?
Result: condition not met

Problem: Is EC50 of C[C@H](O)[C@H]1OC(CC2OC[C@@]3(C)[C@@H]4CC[C@]5(C)[C@H](CC=C6[C@@H]7CC(C)(C)CC[C@]7(C(=O)O)CC[C@]65C)[C@@]4(C)CC[C@@H]3O2)[C@@H](O)[C@@H]1O (some centres not stated) strictly below 10 µM?
Result: condition not met

Problem: Is EC50 of CC1(C)CC[C@]2(NC(=O)N3CCC[C@H]3C(=O)O)CC[C@]3(C)C(=CC[C@@H]4[C@@]5(C)CC[C@@H]6OC(C)(C)OC[C@@]6(C)[C@@H]5CC[C@]43C)[C@@H]2C1 strictly below 10 µM?
Result: condition not met

Problem: Is EC50 of CC1(C)CC[C@]2(C(=O)O)CC[C@]3(C)C(=CC[C@@H]4[C@@]5(C)CC[C@@H]6OC(C)(C)OC[C@@]6(C)[C@@H]5CC[C@]43C)[C@@H]2C1 strictly below 10 µM?
Result: condition not met

---
Problem: Is EC50 of CC1(C)CC[C@]2(N=C=O)CC[C@]3(C)C(=CC[C@@H]4[C@@]5(C)CC[C@@H]6OC(C)(C)OC[C@@]6(C)[C@@H]5CC[C@]43C)[C@@H]2C1 strictly below 10 µM?
Result: condition met

Problem: Is EC50 of CC(=O)OC[C@@]1(C)[C@@H]2CC[C@]3(C)[C@H](CC=C4[C@@H]5CC(C)(C)CC[C@]5(NC(=O)N5CCCC5)CC[C@]43C)[C@@]2(C)CC[C@@H]1O strictly below 10 µM?
Result: condition not met
